Target: UniProt P00383
Sequence (P00383 whole entry): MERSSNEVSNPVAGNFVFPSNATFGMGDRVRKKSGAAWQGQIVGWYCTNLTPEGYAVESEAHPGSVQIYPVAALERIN
Test: […] NMR titration, chemical shift, […] fit
Assay type: binding
Readout: Kd
A bare number is not enough; add the unit after it.

Sample NC(=O)c1ccc[n+]([C@@H]2O[C@H](COP(=O)(O)OP(=O)(O)OC[C@H]3O[C@@H](n4cnc5c(N)ncnc54)[C@H](OP(=O)(O)O)[C@@H]3O)[C@@H](O)[C@H]2O)c1 [NADP^+] — what was its Kd?
220 µM
